Reported MBI 3A4 values for a set of compounds
Molecular target: CYP3A4 (Homo sapiens (Human))
Sequence (P08684 whole entry): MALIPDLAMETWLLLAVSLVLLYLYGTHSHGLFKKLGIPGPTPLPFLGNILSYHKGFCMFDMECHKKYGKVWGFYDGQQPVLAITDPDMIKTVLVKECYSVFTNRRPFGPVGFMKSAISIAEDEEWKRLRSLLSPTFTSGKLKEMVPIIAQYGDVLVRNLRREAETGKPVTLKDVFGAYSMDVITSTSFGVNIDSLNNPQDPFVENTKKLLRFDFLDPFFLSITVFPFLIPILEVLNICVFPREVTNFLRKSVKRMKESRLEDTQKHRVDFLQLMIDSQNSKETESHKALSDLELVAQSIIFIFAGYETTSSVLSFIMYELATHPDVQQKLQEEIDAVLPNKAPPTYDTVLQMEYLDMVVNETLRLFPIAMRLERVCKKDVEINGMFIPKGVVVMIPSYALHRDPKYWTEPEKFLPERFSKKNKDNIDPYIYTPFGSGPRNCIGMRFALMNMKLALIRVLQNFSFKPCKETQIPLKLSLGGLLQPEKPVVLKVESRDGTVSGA
Experiment: Mechanism based inhibition of CYP3A4 assay (MBI 3A4)
Format: in vitro ADME
Settings: hydroxy-midazolam formation after 30 min vs 0 min preincubation, 25 uM, human liver microsomes
Measured endpoint: MBI 3A4 (%)

smiles_representation=C[C@H](Oc1cc(-c2cnn(C)c2)nc(-c2noc3c2CCC[C@@]32CCCc3sc(N)c(C#N)c32)n1)[C@@H]1CCCN1C result_value=81
smiles_representation=C[C@H](Oc1cc(N2CCNC3(CC3)C2)nc(-c2onc3c2CCC[C@@]32CCCc3sc(N)c(C#N)c32)n1)[C@@H]1CCCN1C result_value=34
smiles_representation=C[C@H](Oc1cc(-c2ccn(C3COC3)n2)nc(-c2onc3c2CCC[C@@]32CCCc3sc(N)c(C#N)c32)n1)[C@@H]1CCCN1C result_value=67
smiles_representation=COC(=O)c1ccc(-c2cc(O[C@@H](C)[C@@H]3CCCN3C)nc(-c3noc4c3CCC[C@@]43CCCc4sc(N)c(C#N)c43)n2)o1 result_value=85
smiles_representation=C[C@H](Oc1cc(N2C[C@@H](N(C)C)[C@@H](O)C2)nc(-c2noc3c2CCC[C@@]32CCCc3sc(N)c(C#N)c32)n1)[C@@H]1CCCN1C result_value=80
smiles_representation=CC(C)N1CCCN(c2cc(-c3ccn(C)n3)nc(-c3noc4c3CCC[C@@]43CCCc4sc(N)c(C#N)c43)n2)[C@@H](C)C1 result_value=70

---

Assay: Caco-2 assay (permeability PappAB, PappBA, efflux ratio)
Format: in vitro ADME
Settings: human, Caco-2; apical to basolateral; 10 μM test compound, pH 7.4
Category scheme (Papp A→B at 90 min, 10 μM): group A (below 20 nm/s), group B (20 nm/s to below 50 nm/s), group C (50 nm/s or more)

smiles_representation=C[C@H](Oc1cc(N2CCC[C@@H](O)C2)nc(-c2noc3c2CCC[C@@]32CCCc3sc(N)c(C#N)c32)n1)[C@@H]1CCCN1C group="group A"
smiles_representation=CO[C@@H]1C[C@@H]([C@H](C)Oc2cc(N3CCN(C)C4(COC4)C3)nc(-c3noc4c3CCC[C@@]43CCCc4sc(N)c(C#N)c43)n2)N(C)C1 group="group A"
smiles_representation=C[C@H](Oc1cc(-n2cc3c(n2)CCNC3)nc(-c2noc3c2CCC[C@@]32CCCc3sc(N)c(C#N)c32)n1)[C@@H]1CCCN1C group="group A"
smiles_representation=C[C@H](Oc1cc(-c2ccn(C)n2)nc(-c2noc3c2CCC[C@@]32CCCc3sc(N)c(C#N)c32)n1)[C@@H]1CCCN1C group="group C"
smiles_representation=C[C@@H]1CN(c2cc(O[C@@H](C)[C@@H]3CCCN3C)nc(-c3noc4c3CCC[C@@]43CCCc4sc(N)c(C#N)c43)n2)CCN1 group="group A"
smiles_representation=CC(C)NC(=O)Cc1ccn(-c2cc(O[C@@H](C)[C@@H]3CCCN3C)nc(-c3noc4c3CCC[C@@]43CCCc4sc(N)c(C#N)c43)n2)n1 group="group C"
smiles_representation=C[C@H](Oc1cc(-n2ccnc2)nc(-c2noc3c2CCC[C@@]32CCCc3sc(N)c(C#N)c32)n1)[C@@H]1CCCN1C group="group B"
smiles_representation=C[C@H](Oc1cc(-c2ccn(C[C@H]3CCOC3)n2)nc(-c2noc3c2CCC[C@@]32CCCc3sc(N)c(C#N)c32)n1)[C@@H]1CCCN1C group="group B"
smiles_representation=C[C@H](Oc1cc(N2CCN(C)CC2)nc(-c2noc3c2CCC[C@@]32CCCc3sc(N)c(C#N)c32)n1)[C@@H]1CCCN1C group="group B"
smiles_representation=CO[C@H]1CCN(C)[C@@H]1[C@H](C)Oc1cc(N2CCN(C)C3(CC3)C2)nc(-c2noc3c2CCC[C@@]32CCCc3sc(N)c(C#N)c32)n1 group="group C"

---

Tested on: SAS cells
Experiment: SAS CTG proliferation assay (120 h) (HNSCC, wt amplified)
Format: cell-based
pIC50: −log10 of the molar value.
Measured endpoint: pIC50

molecule="C[C@H](Oc1cc(N2CCC(C#N)C2)nc(-c2noc3c2CCC[C@@]32CCCc3sc(N)c(C#N)c32)n1)[C@@H]1CCCN1C (stereo partly drawn) [II-99]" target_under_test="SAS cells" measured_endpoint=pIC50 result_value=7.06
molecule="CC(=O)N1CCN(c2cc(O[C@@H](C)[C@@H]3CCCN3C)nc(-c3noc4c3CCC[C@@]43CCCc4sc(N)c(C#N)c43)n2)CC12CC2 [II-178]" target_under_test="SAS cells" measured_endpoint=pIC50 result_value=5.59
molecule="C[C@H](Oc1cc(N2CCNC(C)(C)C2)nc(-c2noc3c2CCC[C@@]32CCCc3sc(N)c(C#N)c32)n1)[C@@H]1CCCN1C [II-32]" target_under_test="SAS cells" measured_endpoint=pIC50 result_value=5.08
molecule="C[C@H](Oc1cc(N2CC[C@@H](N(C)C)C2)nc(-c2noc3c2CCC[C@@]32CCCc3sc(N)c(C#N)c32)n1)[C@@H]1CCCN1C [II-47]" target_under_test="SAS cells" measured_endpoint=pIC50 result_value=5.58
molecule="C[C@H](Oc1cc(-n2ccc(Br)n2)nc(-c2noc3c2CCC[C@@]32CCCc3sc(N)c(C#N)c32)n1)[C@@H]1CCCN1C [II-110]" target_under_test="SAS cells" measured_endpoint=pIC50 result_value=7.17
molecule="C[C@H](Oc1cc(N2CCNC3(CC3)C2)nc(-c2noc3c2CCC[C@@]32CCCc3sc(N)c(C#N)c32)n1)[C@@H]1CCCN1C [II-54]" target_under_test="SAS cells" measured_endpoint=pIC50 result_value=6.63
molecule="C[C@H](Oc1cc(-c2ccn([C@H]3CCCOC3)n2)nc(-c2noc3c2CCC[C@@]32CCCc3sc(N)c(C#N)c32)n1)[C@@H]1CCCN1C [II-42]" target_under_test="SAS cells" measured_endpoint=pIC50 result_value=6.58
molecule="C[C@H](Oc1cc(-n2nccc2-c2ccncc2)nc(-c2noc3c2CCC[C@@]32CCCc3sc(N)c(C#N)c32)n1)[C@@H]1CCCN1C [II-131]" target_under_test="SAS cells" measured_endpoint=pIC50 result_value=6.21
molecule="[2H]C([2H])([2H])N1C[C@H](F)C[C@H]1[C@H](C)Oc1cc(N2CCNC3(CC3)C2)nc(-c2noc3c2CCC[C@@]32CCCc3sc(N)c(C#N)c32)n1 [II-208]" target_under_test="SAS cells" measured_endpoint=pIC50 result_value=6.14
molecule="C[C@H](Oc1cc(N2CCN(C)C3(CCC3)C2)nc(-c2onc3c2CCC[C@@]32CCCc3sc(N)c(C#N)c32)n1)[C@@H]1CCCN1C [I-44]" target_under_test="SAS cells" measured_endpoint=pIC50 result_value=5.92
molecule="CCN1CCN(c2cc(O[C@@H](C)[C@@H]3C[C@@H](F)CN3C)nc(-c3noc4c3CCC[C@@]43CCCc4sc(N)c(C#N)c43)n2)CC12CC2 [II-185]" target_under_test="SAS cells" measured_endpoint=pIC50 result_value=5.62
molecule="C[C@H](Oc1nc(-c2noc3c2CCC[C@@]32CCCc3sc(N)c(C#N)c32)nc(N2C[C@H](C)NC3(CC3)C2)c1F)[C@@H]1C[C@@H](F)CN1C [II-157]" target_under_test="SAS cells" measured_endpoint=pIC50 result_value=5.92

---

System: KRAS G12C-dependent Ba/F3 cells
Assay: Ba/F3 proliferation assay, KRAS G12C
Assay type: cell-based
Details: Mus musculus, BaF3, 72 h, AlamarBlue
Measured endpoint: log10 IC50 (log10 of the value in nM)

molecule=C[C@H](Oc1cc(-c2ccn(CC(C)(C)O)n2)nc(-c2onc3c2CCC[C@@]32CCCc3sc(N)c(C#N)c32)n1)[C@@H]1CCCN1C result_value=1.23
molecule=C[C@H](Oc1nc(-c2noc3c2CCC[C@@]32CCCc3sc(N)c(C#N)c32)nc(N2C[C@H](C)NC3(CC3)C2)c1F)[C@@H]1C[C@@H](F)CN1C result_value=2.39
molecule="C[C@H](Oc1cc(N2CCC(C#N)C2)nc(-c2noc3c2CCC[C@@]32CCCc3sc(N)c(C#N)c32)n1)[C@@H]1CCCN1C (stereo partly drawn)" result_value=1.45
molecule=C[C@H](Oc1nc(-c2noc3c2CCC[C@@]32CCCc3sc(N)c(C#N)c32)nc(N2CCN(C)C3(CC3)C2)c1Cl)[C@@H]1C[C@@H](F)CN1C result_value=3.12
molecule=C[C@H](Oc1cc(C2=CCOCC2)nc(-c2noc3c2CCC[C@@]32CCCc3sc(N)c(C#N)c32)n1)[C@@H]1CCCN1C result_value=1.45
molecule=C[C@H](Oc1cc(-c2cn(C3CCOCC3)nn2)nc(-c2noc3c2CCC[C@@]32CCCc3sc(N)c(C#N)c32)n1)[C@@H]1CCCN1C result_value=1.46
molecule=C[C@H](Oc1cc(N2CC[C@H](N3CCCC3)C2)nc(-c2noc3c2CCC[C@@]32CCCc3sc(N)c(C#N)c32)n1)[C@@H]1CCCN1C result_value=2.47
molecule=C[C@@H]1CN(c2nc(-c3noc4c3CCC[C@@]43CCCc4sc(N)c(C#N)c43)nc(O[C@@H](C)[C@@H]3C[C@@H](F)CN3C)c2F)CC2(CC2)N1 result_value=2.13
molecule=CO[C@H]1CCN(C)[C@@H]1[C@H](C)Oc1cc(-n2ccc(C(=O)N(C)C3COC3)n2)nc(-c2noc3c2CCC[C@@]32CCCc3sc(N)c(C#N)c32)n1 result_value=0.48
molecule=C[C@H](Oc1cc(N2C[C@H]3CN(C)C[C@H]3C2)nc(-c2noc3c2CCC[C@@]32CCCc3sc(N)c(C#N)c32)n1)[C@@H]1CCCN1C result_value=2.72
molecule=C[C@H](Oc1cc(-n2cnc(C(=O)N(C)C)c2)nc(-c2noc3c2CCC[C@@]32CCCc3sc(N)c(C#N)c32)n1)[C@@H]1CCCN1C result_value=1.51
molecule=COCc1cn(-c2cc(O[C@@H](C)[C@@H]3CCCN3C)nc(-c3noc4c3CCC[C@@]43CCCc4sc(N)c(C#N)c43)n2)nn1 result_value=1.11

The values you see were collected from patent US20240174690A1.
